METHOD: chemical genetic growth profiling, strain panel (AID 1159580);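 further: tested at 20 µM; growth read once vehicle control cultures reached saturation at 30 °C; 1 = growth at the plate median or of vehicle wells; lower values mean less growth of the strain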
STATED_CONDITIONS: S. cerevisiae deletion strains, growth OD, locus YMR219W, strain ESC1, hits give low values
Screen size: about 5,500 compounds; about 2,000 (36%) were called active. About 18% were inconclusive and are not listed. This is one part of the list.
ASSAY_READOUT: normalized growth
Lab note: record just the number, no unit beside it.

Example entries begin here.
CCOC(=O)c1cnc2cc(C)nn2c1C | 0.991
CC12CCC3C(CCC4=CC(=O)CCC43CO)C1CCC2OC(=O)c1ccccc1 (stereo unspecified) | 1.01
COc1cc(/C=C2\NC(=O)NC2=O)ccc1O | 0.974
CCC(=O)Nc1cc(F)ccc1C | 0.997
Cc1ccc(C)c(NC(=S)N(CCc2ccccc2)CCc2ccccn2)c1 | 0.996

Alright, here's another compound for you.
Prompt: Using the record for Ic1ccc(I)s1 , state its measured normalized growth.
Response: 1.01

* * *

METHOD: chemical genetic growth profiling, strain panel (AID 1159580)
STATED_CONDITIONS: S. cerevisiae deletion strains, growth OD, locus YNL153C, strain GIM3, hits give low values
The whole screen tested about 5,500 compounds, of which about 2,000 (36%) were called active. About 18% were inconclusive and are not listed. The list shows a part of the results.
API: label(entry) gives t if the entry's normalized growth is strictly smaller than 1; on equality or larger values it gives f.

CC[C@H]1OC(=O)[C@H](C)[C@@H](O[C@H]2C[C@@](C)(OC)[C@@H](O)[C@H](C)O2)[C@H](C)[C@@H](O[C@@H]2O[C@H](C)C[C@H](N(C)C)[C@H]2O)[C@](C)(O)C[C@@H](C)CN(C)[C@H](C)[C@@H](O)[C@]1(C)O | f
O=C(CC[N+](=O)[O-])OC[C@H]1O[C@@H](O)[C@H](OC(=O)CC[N+](=O)[O-])[C@@H](OC(=O)CC[N+](=O)[O-])[C@@H]1OC(=O)CC[N+](=O)[O-] | f
O=C1O/C(=C/Br)CCC1c1cccc2ccccc12 (stereo not drawn) | t

Okay, now this compound:
Prompt: Identify whether the compound CC1(C(=O)O)C2CCC(O2)C1(C)C(=O)O (stereo not drawn) records normalized growth below 1.
Response: t

* * *

METHOD: chemical genetic growth profiling, strain panel (AID 1159580)
STATED_CONDITIONS: S. cerevisiae deletion strains, growth OD, locus YJL129C, strain trk1, hits give low values
Out of some 5,500 compounds screened, about 2,000 (36%) were called active. Not shown: some 18% with an inconclusive outcome. Some of the results follow.
ASSAY_READOUT: normalized growth

CC1=C(CC(=O)O)c2cc(F)ccc2/C1=C\c1ccc(S(C)=O)cc1 (stereo unspecified) | 1.03 (inactive)
CC(C)(O)[C@@H]1[C@H]2OC(=O)[C@@H]1[C@]1(O)C[C@H]3O[C@]34C(=O)O[C@H]2[C@]14C | 1 (inactive)
CN(C)C(=S)SSC(=S)N(C)C | 0.0884 (active)

Prompt: Using the record for Cc1cccc(C)c1OCC(C)N (stereo unspecified) , state its measured normalized growth.
Response: 1.02 (inactive)

Prompt: Using the record for CN1CCC(=C2c3ccccc3Sc3ccccc32)CC1 , state its measured normalized growth.
Response: 1.07 (inactive)

Prompt: Using the record for CCOC(=O)C(=O)C1(C(=O)OCC)Oc2cc(OC)cc(OC)c2C(=O)C1c1ccccc1 (stereo unspecified) , state its measured normalized growth.
Response: 0.862 (active)

Prompt: Using the record for CO[C@H]1[C@H](O)[C@H](O[C@H]2CC[C@]3(C)C4CC[C@]5(C)C(C6=CC(=O)OC6)CC[C@]5(O)C4CC[C@@H]3C2)O[C@@H](C)[C@@H]1O (stereo partly specified) , state its measured normalized growth.
Response: 0.974 (inactive)

Prompt: Using the record for CCCCCCCCNC(C)C(O)c1ccc(SC(C)C)cc1 (stereo unspecified) , state its measured normalized growth.
Response: 0.0791 (active)

Prompt: Using the record for CC1(C)OC(=O)NC1=O , state its measured normalized growth.
Response: 0.94 (inactive)

Prompt: Using the record for O=C(O)c1c2ccccc2cc2ccccc12 , state its measured normalized growth.
Response: 1 (inactive)

* * *

METHOD: chemical genetic growth profiling, strain panel (AID 1159580)
STATED_CONDITIONS: S. cerevisiae deletion strains, growth OD, locus YMR231W, strain pep5, hits give low values
Screen size: about 5,500 compounds; about 2,000 (36%) were called active. Roughly 18% stayed inconclusive and do not appear here. The list shows a part of the results.
Catalogue of normalized growth values

Example entries begin here.
Cc1cc(O)c(C)c(O)c1C(=O)O | 0.985 (inactive)
CCOC(=O)c1c(C)c(Cl)c(O)c(Cl)c1O | 0.361 (active)

Alright, here's another molecule for you.
Prompt: Using the record for Cc1cc(O)c(C=O)c(O)c1C(=O)O , state its measured normalized growth.
Response: 0.989 (inactive)

* * *

METHOD: chemical genetic growth profiling, strain panel (AID 1159580);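 further: tested at 20 µM; growth read once vehicle control cultures reached saturation at 30 °C; 1 = growth at the plate median or of vehicle wells; lower values mean less growth of the strain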
STATED_CONDITIONS: S. cerevisiae deletion strains, growth OD, locus YPL153C, strain RAD53, hits give low values
Out of some 5,500 compounds screened, about 2,000 (36%) were called active. Not shown: some 18% with an inconclusive outcome. Some of the results follow.
ASSAY_READOUT: normalized growth

Example entries begin here.
COc1cc2c(cc1OC)C(C)N(C(=O)c1sc3ccccc3c1Cl)CC2 (stereo not drawn) | 0.905 (inactive)
Cc1ccc2nc(-c3ccc(Cl)cc3)cn2c1 | 0.899 (inactive)
Cc1ccc(/C=C2\CSc3ccc(F)cc3C2=O)cc1 | 0.888 (inactive)
COc1ccc(CN2CSC(=S)N(Cc3ccc(OC)cc3)C2)cc1 | 0.931 (inactive)
CCOC(=O)CSC(=S)NCc1ccc(C)cc1 | 0.954 (inactive)

Prompt: Using the record for O=S(=O)(Nc1cccc2nsnc12)c1cc(Cl)sc1Cl , state its measured normalized growth.
Response: 0.994 (inactive)

Prompt: Using the record for COc1cc(NC(=S)NNS(=O)(=O)c2ccc(C)cc2)c(OC)cc1Cl , state its measured normalized growth.
Response: 0.95 (inactive)

Prompt: Using the record for Cc1nnsc1C(=O)NNc1c(Cl)cccc1Cl , state its measured normalized growth.
Response: 0.949 (inactive)

* * *

METHOD: chemical genetic growth profiling, strain panel (AID 1159580);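 further: tested at 20 µM; growth read once vehicle control cultures reached saturation at 30 °C; 1 = growth at the plate median or of vehicle wells; lower values mean less growth of the strain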
STATED_CONDITIONS: S. cerevisiae deletion strains, growth OD, locus YOL006C, strain TOP1, hits give low values
The campaign covered roughly 5,500 compounds. About 2,000 (36%) were called active. Another 18% or so got no clear call; they are omitted. The list shows a part of the results.
Catalogue of normalized growth values
Lab note: record just the number, no unit beside it.

Example entries begin here.
C[C@]12CCC(=O)C=C1CCC1C2CC[C@@]2(C)C1CC[C@@H]2O (stereo partly drawn) | 0.971
Cc1c(O)c(C(=O)CC(C)C)c2oc3c(C(=O)CC(C)C)c(O)c(C)c(O)c3c2c1O | 0.977
CCCCCCCCCCCCCCCC[N+](C)(C)C | 0.0794
CCC(=O)O[C@H]1CCC2C3CCC4=CC(=O)CC[C@]4(C)C3CC[C@@]21C (stereo partly drawn) | 0.74
CC(C)(OC(=O)c1ccccc1)[C@@H]1Cc2cc3ccc(=O)oc3cc2O1 | 0.761

Prompt: Using the record for Cc1ccc(OS(=O)(=O)c2ccc(C#N)cc2)c(Br)c1 , state its measured normalized growth.
Response: 0.765

Prompt: Using the record for ClC1=C(Cl)C2(Cl)C3C4CC(C5OC45)C3C1(Cl)C2(Cl)Cl (stereo not drawn) , state its measured normalized growth.
Response: 1.01

Prompt: Using the record for CC1(C)OC(=O)NC1=O , state its measured normalized growth.
Response: 0.926

Prompt: Using the record for CC(CCc1ccccc1)NC(C)C(O)c1ccc(O)cc1 (stereo not drawn) , state its measured normalized growth.
Response: 0.948

Prompt: Using the record for CC(=O)[C@H]1CCC2C3CCC4=CC(=O)CC[C@]4(C)C3CC[C@@]21C (stereo partly drawn) , state its measured normalized growth.
Response: 0.652

Prompt: Using the record for CC(=O)c1c(O)c(C)c(O)c2c1oc1c(C(C)=O)c(O)c(C)c(O)c12 , state its measured normalized growth.
Response: 0.921

Prompt: Using the record for CNC(C)[C@H](O)c1ccccc1 (stereo partly drawn) , state its measured normalized growth.
Response: 1.16

Prompt: Using the record for CSc1nnnn1-c1c(C)cccc1C , state its measured normalized growth.
Response: 0.944

* * *

METHOD: chemical genetic growth profiling, strain panel (AID 1159580);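 further: tested at 20 µM; growth read once vehicle control cultures reached saturation at 30 °C; 1 = growth at the plate median or of vehicle wells; lower values mean less growth of the strain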
STATED_CONDITIONS: S. cerevisiae deletion strains, growth OD, locus YLR262C, strain YPT6
About 2,000 (36%) of roughly 5,500 compounds were called active. Not shown: some 18% with an inconclusive outcome. Cut-off read from the data, not from the text of the source: active = normalized growth mostly below about 0.91 (no sharp cut-off); inconclusive = no clear call, values can overlap the other calls; inactive = mostly above about 0.92. The list shows a part of the results.
Parameter call: string, one of active, inactive

CC(=O)OCC(=O)[C@H]1CCC2C3CCC4=CC(=O)CC[C@]4(C)C3CC[C@@]21C (some centres undefined) | inactive

Prompt: Record lookup: outcome of this test for COc1ccc2c3c1O[C@H]1C[C@@H](O)C=C[C@@]31CCN(C)C2 ?
Response: inactive

Prompt: Record lookup: outcome of this test for CNCCc1ccccn1 ?
Response: inactive

Prompt: Record lookup: outcome of this test for Cc1cccc(Cn2c(C)c(C)c(S(=O)(=O)c3ccccc3)c2N)c1C ?
Response: inactive

Prompt: Record lookup: outcome of this test for c1cncc(C2CCCCN2)c1 (centres undefined) ?
Response: inactive

Prompt: Record lookup: outcome of this test for COc1ccc(OC)c(S(=O)(=O)Nc2ccc(C#N)cc2)c1 ?
Response: inactive

Prompt: Record lookup: outcome of this test for CN(C)CC/C=C1\c2ccccc2Sc2ccc(Cl)cc21 ?
Response: active

Prompt: Record lookup: outcome of this test for CCN(CCO)CCCC(C)Nc1ccnc2cc(Cl)ccc12 (centres undefined) ?
Response: inactive

Prompt: Record lookup: outcome of this test for CCN(CC)CCCC(C)Nc1ccnc2cc(Cl)ccc12 (centres undefined) ?
Response: inactive
